Test system: Bartonella bacilliformis
Test: Expected efficacy of antibiotic agents
Conditions: expected efficacy against Bartonella bacilliformis; Gram: neg

structureSmilesString: C/C(=C\C(=O)OCCCCCCCCC(=O)O)C[C@@H]1OC[C@H](C[C@@H]2O[C@H]2[C@@H](C)[C@H](C)O)[C@@H](O)[C@H]1O
Efficacy: no
--
structureSmilesString: O=C(O)c1cn(C2CC2)c2cc(N3CCNCC3)c(F)cc2c1=O
Efficacy: yes
--
structureSmilesString: CC[C@H]1OC(=O)[C@H](C)[C@@H](O[C@H]2C[C@@](C)(OC)[C@@H](O)[C@H](C)O2)[C@H](C)[C@@H](O[C@@H]2O[C@H](C)C[C@H](N(C)C)[C@H]2O)[C@](C)(O)C[C@@H](C)CN(C)[C@H](C)[C@@H](O)[C@]1(C)O
Efficacy: yes
--
structureSmilesString: CN[C@H](CC(C)C)C(=O)N[C@H]1C(=O)N[C@@H](CC(N)=O)C(=O)N[C@H]2C(=O)N[C@H]3C(=O)N[C@H](C(=O)N[C@H](C(=O)O)c4cc(O)cc(O)c4-c4cc3ccc4O)[C@H](O)c3ccc(c(Cl)c3)Oc3cc2cc(c3O[C@@H]2O[C@H](CO)[C@@H](O)[C@H](O)[C@H]2O[C@H]2C[C@](C)(N)[C@H](O)[C@H](C)O2)Oc2ccc(cc2Cl)[C@H]1O
Efficacy: no
